The compounds below have reported Ki for hCA I (Homo sapiens, UniProt P00915).
Respond numerically; units are nM and should not be typed.

May I ask what Ki has been recorded for CCCCc1cc(C)cc(CCCC)[n+]1-c1cccc(S(N)(=O)=O)c1 [19e] ?
462

May I ask what Ki has been recorded for CCCCc1cc(C)cc(C)[n+]1-c1cccc(S(N)(=O)=O)c1 [19i] ?
65.1

May I ask what Ki has been recorded for CCc1cc(C)cc(CC)[n+]1-c1cccc(S(N)(=O)=O)c1 [19b] ?
86.3

May I ask what Ki has been recorded for NS(=O)(=O)c1cccc(-[n+]2c(-c3ccccc3)cc(-c3ccccc3)cc2-c2ccccc2)c1 [19x] ?
58

---

target: hCA XII (Homo sapiens)
Sequence (O43570 30-289 limits assumed): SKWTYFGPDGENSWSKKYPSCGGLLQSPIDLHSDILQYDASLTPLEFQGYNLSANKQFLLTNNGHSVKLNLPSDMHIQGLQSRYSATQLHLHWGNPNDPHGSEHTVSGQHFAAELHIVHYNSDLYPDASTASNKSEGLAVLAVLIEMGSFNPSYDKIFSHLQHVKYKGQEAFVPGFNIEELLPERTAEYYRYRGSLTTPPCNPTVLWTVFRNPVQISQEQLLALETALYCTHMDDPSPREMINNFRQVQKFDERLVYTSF
pKi: −log10 of the molar value.
Lab note: anything with pKi at or over 8 counts as satisfied; the rest go in not satisfied.

Example cases with answers are listed next.
Cc1c2cc(c(C)[n+]1-c1cccc(S(N)(=O)=O)c1)CCCCCCCCC2 [19u]: not satisfied
CCCCc1cc(C)cc(C)[n+]1-c1cccc(S(N)(=O)=O)c1 [19i]: satisfied
Cc1cc(C)[n+](-c2cccc(S(N)(=O)=O)c2)c(-c2ccccc2)c1 [19v]: satisfied
CCCc1cc(C)cc(CCC)[n+]1-c1cccc(S(N)(=O)=O)c1 [19c]: satisfied

hey, is pKi for this one >= 8? Cc1cc(C(C)C)[n+](-c2cccc(S(N)(=O)=O)c2)c(C(C)C)c1 [19d]
satisfied

hey, is pKi for this one >= 8? CCCc1cc(C)cc(C)[n+]1-c1cccc(S(N)(=O)=O)c1 [19g]
satisfied

hey, is pKi for this one >= 8? CCCCc1cc(C)cc(CCCC)[n+]1-c1cccc(S(N)(=O)=O)c1 [19e]
not satisfied

hey, is pKi for this one >= 8? CCCCc1cc(-c2ccccc2)cc(-c2ccccc2)[n+]1-c1cccc(S(N)(=O)=O)c1 [19s]
not satisfied

hey, is pKi for this one >= 8? CCc1cc(C)cc(CC)[n+]1-c1cccc(S(N)(=O)=O)c1 [19b]
satisfied

Recorded values, source paper PMC7846937.
